# test_system: T1, GFP-9S library array, motif 4 ND N98S;D124H (synthetic construct, N98S;D124H)
# T1 chain: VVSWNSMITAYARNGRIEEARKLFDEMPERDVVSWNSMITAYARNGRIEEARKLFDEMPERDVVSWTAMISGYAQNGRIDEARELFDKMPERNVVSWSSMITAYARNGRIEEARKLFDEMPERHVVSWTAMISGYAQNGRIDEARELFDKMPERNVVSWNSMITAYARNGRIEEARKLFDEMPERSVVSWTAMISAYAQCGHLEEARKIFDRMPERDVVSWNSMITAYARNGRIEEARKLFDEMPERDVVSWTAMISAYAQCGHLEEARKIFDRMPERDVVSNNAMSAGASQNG
# procedure_summary: high-throughput RNA pulldown from lysate on Ni-NTA beads; HRP: 50 mM Tris pH 8, 150 mM NaCl, 1 mM beta-mercaptoethanol, 50 ug/ml BSA, 3 ug/ml yeast RNA, 0.5% heparin; ITC and FP: Tris pH 8, 200 mM KCl, 5% glycerol; MST: 50 mM Tris pH 8, 200 mM NaCl, 1 mM DTT, BSA, heparin, 0.05% Tween 20
# applied_conditions: tags: N-terminal His-eGFP; label: 5' Cy5
experimental_endpoint: Kd (nM)
Numbers only, in nM.

AUUAGACGUGA (ssRNA) [Cy5-rpoA-G]: 99.4

Now turn to the next binder.
Q: Query: Kd; subject: AUUACACGUGA (ssRNA) [Cy5-rpoA]
Result: 122
